Listed below: Ki values for each entry.
target_under_test: Muscarinic M2 (Homo sapiens, UniProt P08172)
Sequence (P08172 1-466): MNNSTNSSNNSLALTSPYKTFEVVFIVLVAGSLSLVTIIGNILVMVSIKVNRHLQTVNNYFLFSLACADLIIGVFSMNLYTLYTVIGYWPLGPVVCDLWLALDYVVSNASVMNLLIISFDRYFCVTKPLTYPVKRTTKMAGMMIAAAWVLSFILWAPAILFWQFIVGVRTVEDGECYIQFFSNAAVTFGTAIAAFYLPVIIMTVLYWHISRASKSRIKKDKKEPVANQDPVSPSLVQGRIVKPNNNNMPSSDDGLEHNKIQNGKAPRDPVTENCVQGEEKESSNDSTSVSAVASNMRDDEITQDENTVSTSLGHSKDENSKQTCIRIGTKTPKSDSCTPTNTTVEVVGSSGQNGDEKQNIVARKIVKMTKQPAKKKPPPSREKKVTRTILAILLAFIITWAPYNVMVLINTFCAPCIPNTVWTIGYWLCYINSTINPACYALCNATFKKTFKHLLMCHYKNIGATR
assay_readout: Ki

1) CN1C2CCC1CC(OC(c1ccc(Cl)cc1)c1ccc(Cl)cc1)C2 (centres unmarked)    640 nM
2) CN1C2CCC1CC(OC(c1ccccc1)c1ccc(Cl)cc1)C2 (centres unmarked)    5.88 nM

Values from paper PMC3758386
